target: HIV protease (Human immunodeficiency virus type 1 group M subtype B); construct: and purified protease; test: HIV Protease Assay; assay type: biochemical; conditions: pH 5.5, 10 μM inhibitor, 4% DMSO, 450 μM substrate, pH 5.5, 30 minutes at 37° C., RP-HPLC; read-out: HIV Protease % Inhibition at 10 μM

Molecule	inhibition at 10 µM (%)
CC(C)(C)OC(=O)N[C@@H](Cc1ccccc1)[C@H](O)CNC[C@@H](O)[C@H](Cc1ccccc1)N[S+]([O-])C(C)(C)C (some centres unmarked)	41
CC(C)(C)OC(=O)N[C@@H](Cc1ccccc1)[C@H](O)CNC[C@@H](O)[C@H](Cc1ccccc1)NC(=O)OCCO	95
CC(C)(C)OC(=O)N[C@@H](Cc1ccccc1)[C@H](O)CNCC(C)(O)[C@H](Cc1ccccc1)NC(=O)OC(C)(C)C (some centres unmarked)	85
CC(C)(C)OC(=O)N[C@@H](Cc1ccccc1)[C@H](O)CNC[C@@H](O)[C@H](Cc1ccccc1)NC(=O)C(NC(=O)OCc1ccccc1)C(C)(C)CO (single isomer, unassigned; isomer a)	100
CC(C)(C)OC(=O)N[C@@H](Cc1ccccc1)[C@H](O)CNC[C@@H](O)[C@H](Cc1ccccc1)NC(=O)OCc1nc2ccccc2[nH]1	53
CNC(=O)C(C(=O)N[C@@H](Cc1ccccc1)[C@H](O)CNC[C@@H](O)[C@H](Cc1ccccc1)NC(=O)OC(C)(C)C)C(C)(C)C (some centres unmarked)	99
CC(C)(C)OC(=O)N[C@@H](Cc1ccccc1)[C@H](O)CNC[C@@H](O)[C@H](Cc1ccccc1)NC(=O)[C@H](CCO)NC(=O)OCc1ccccc1 (relative stereo)	99
CC(C)[C@H](NC(=O)OC1CCc2ccccc21)C(=O)N[C@@H](Cc1ccccc1)[C@H](O)CNC[C@@H](O)[C@H](Cc1ccccc1)NC(=O)OC(C)(C)C (some centres unmarked)	100
CC(C)(C)OC(=O)N[C@@H](Cc1ccccc1)[C@H](O)CNC[C@@H](O)[C@H](Cc1ccccc1)NC(=O)OC(C)(C)COCc1ccccc1	90
CC(C)(C)OC(=O)N[C@@H](Cc1ccccc1)[C@H](O)CNC[C@@H](O)[C@H](Cc1ccc(O)cc1)NC(=O)OC(C)(C)CO	100
CC(C)[C@H](NC(=O)CCc1c[nH]c2ccccc12)C(=O)N[C@@H](Cc1ccccc1)[C@H](O)CNC[C@@H](O)[C@H](Cc1ccccc1)NC(=O)OC(C)(C)C (relative stereo)	100
